Target: apo-FbpABp (Bordetella pertussis)
Sequence (Q7VXW9 31-349): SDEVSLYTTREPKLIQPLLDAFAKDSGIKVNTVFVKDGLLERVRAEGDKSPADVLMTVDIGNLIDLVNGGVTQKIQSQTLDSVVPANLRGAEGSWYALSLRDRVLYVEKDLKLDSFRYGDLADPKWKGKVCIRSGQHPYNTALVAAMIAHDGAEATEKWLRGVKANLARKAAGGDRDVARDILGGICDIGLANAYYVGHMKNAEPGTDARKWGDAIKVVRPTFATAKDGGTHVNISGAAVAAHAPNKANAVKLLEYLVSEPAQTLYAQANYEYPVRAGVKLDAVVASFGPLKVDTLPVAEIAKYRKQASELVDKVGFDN
Format: binding
Known Kd of a selection of compounds

substance.smiles: CC(=O)N(O)CCCCCNC(=O)CCC(=O)N(O)CCCCCNC(=O)CCC(=O)N(O)CCCCCN
Kd: ~1000 nM
--
substance.smiles: O=C(N[C@H]1COC(=O)[C@@H](NC(=O)c2cccc(O)c2O)COC(=O)[C@@H](NC(=O)c2cccc(O)c2O)COC1=O)c1cccc(O)c1O
Kd: ~1000 nM

Taken from paper PMC4075987.
